Tested on: RARg homodimer (NR concentration 270 nM)
Experiment: PBM binding z-score (relative to random genomic background probes); higher = stronger binding; sequences stand for … in GC…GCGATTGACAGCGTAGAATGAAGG
property: PBM binding z-score
One number for each entry.

Below are some sequences; for each one, tell me its PBM binding z-score.
1. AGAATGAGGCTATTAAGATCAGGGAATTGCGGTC
2. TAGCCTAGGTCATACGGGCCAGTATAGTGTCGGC
3. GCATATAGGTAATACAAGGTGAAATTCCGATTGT

Response:
[0.143, 4.43, 0.637]

###

Tested on: LXRb homodimer (NR concentration 270 nM)
Experiment: PBM binding z-score (relative to random genomic background probes); higher = stronger binding; sequences stand for … in GC…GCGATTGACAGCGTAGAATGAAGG
property: PBM binding z-score

Some solved entries appear below for comparison.
{"columns": ["item.sequence", "PBM binding z-score"],
 "data": [
  ["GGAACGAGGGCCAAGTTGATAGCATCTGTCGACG", -0.949],
  ["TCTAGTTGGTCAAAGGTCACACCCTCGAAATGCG", 1.92],
  ["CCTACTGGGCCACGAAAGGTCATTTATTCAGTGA", 1.31],
  ["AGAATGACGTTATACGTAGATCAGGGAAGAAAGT", -0.294],
  ["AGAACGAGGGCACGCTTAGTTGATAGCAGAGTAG", -0.638],
  ["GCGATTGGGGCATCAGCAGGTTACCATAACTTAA", -0.0268],
  ["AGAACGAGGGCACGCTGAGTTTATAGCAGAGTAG", -1.07],
  ["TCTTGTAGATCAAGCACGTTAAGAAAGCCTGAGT", -0.495]
]}

Below are some sequences; for each one, tell me its PBM binding z-score.
1. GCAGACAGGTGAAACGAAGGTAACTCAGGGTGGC
2. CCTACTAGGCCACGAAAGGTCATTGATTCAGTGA

Response:
-1.08
0.558

Below are some sequences; for each one, tell me its PBM binding z-score.
1. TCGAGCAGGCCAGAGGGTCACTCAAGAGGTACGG
2. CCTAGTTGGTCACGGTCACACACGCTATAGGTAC
3. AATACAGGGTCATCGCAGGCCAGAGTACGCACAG
4. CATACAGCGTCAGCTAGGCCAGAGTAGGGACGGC
5. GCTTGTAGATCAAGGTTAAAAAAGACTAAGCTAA
6. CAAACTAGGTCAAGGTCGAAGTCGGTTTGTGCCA
7. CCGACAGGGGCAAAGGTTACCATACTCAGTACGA

Response:
[-1.33, 0.982, 1.25, -0.647, -0.501, -0.00931, -0.622]

Below are some sequences; for each one, tell me its PBM binding z-score.
1. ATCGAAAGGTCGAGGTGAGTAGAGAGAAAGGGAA
2. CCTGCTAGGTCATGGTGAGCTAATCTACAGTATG

Response:
1: 0.462; 2: -0.467

###

Would you mind telling me the reported PBM binding z-score of each entry?
Tested on: RXRa homodimer (NR concentration 180 nM)
Assay: PBM binding z-score (relative to random genomic background probes); higher = stronger binding; sequences stand for … in GC…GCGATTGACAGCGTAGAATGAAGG

Some solved entries appear below for comparison.
{"columns": ["item.sequence", "endpoint.value"],
 "data": [
  ["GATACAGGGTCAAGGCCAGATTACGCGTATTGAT", 6.08],
  ["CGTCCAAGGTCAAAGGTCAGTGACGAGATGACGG", 10.5],
  ["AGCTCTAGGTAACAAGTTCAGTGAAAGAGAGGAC", 0.551],
  ["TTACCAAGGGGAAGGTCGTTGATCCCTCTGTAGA", 0.898]
]}

Below are some sequences; for each one, tell me its PBM binding z-score.
1. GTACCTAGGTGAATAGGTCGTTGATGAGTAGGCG
2. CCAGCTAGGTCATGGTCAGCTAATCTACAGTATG
3. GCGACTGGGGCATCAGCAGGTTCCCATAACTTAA

Response:
1: 1.24; 2: 2.86; 3: -0.0306

Each recorded value in this set is attributed to the supplement of paper PMC6555819.
